Origin of the recorded values: paper PMC6004563

Target: T1, HaloTag-mLin28A (biotinylated) (Mus musculus, UniProt Q8K3Y3 1-209)
T1 sequence: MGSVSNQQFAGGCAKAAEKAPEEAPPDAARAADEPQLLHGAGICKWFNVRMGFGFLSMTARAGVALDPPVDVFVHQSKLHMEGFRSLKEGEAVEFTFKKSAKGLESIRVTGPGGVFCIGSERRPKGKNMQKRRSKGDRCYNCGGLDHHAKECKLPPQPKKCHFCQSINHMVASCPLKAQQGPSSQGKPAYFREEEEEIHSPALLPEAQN
Assay: cat-ELCCA
assay-metric: Kd
Hi, when you answer, please include the unit after the number. Thanks!

What value of measured Kd is listed for 5'-TCO-pre-let-7d (structured_RNA, 5'-phosphate pentylamine (N5) linked to TCO-PEG4) RNA: AGAGGUAGUAGGUUGCAUAGUUUUAGGGCAGGGAUUUUGCCCACAAGGAGGUAACUAUACGACCUGCUGCCUUUCU ?
106 nM
